# System: ~100 representative kinases
# protocol details: DSF 100 kinase selectivity screen
# Type: binding
# test settings: selectivity score: # >5K divided by # of proteins tested in the DSF panel
parameter: S(5K)

Use these answered entries as a reference point.
O=C(Nc1cc(F)cc(Br)c1)C1(C(=O)Nc2cccc(-c3c[nH]c4ncnc(N5CCOCC5)c34)c2)CC1 = 0.087
O=C(Nc1ccc(Cl)cc1)C1(C(=O)Nc2cccc(-c3c[nH]c4ncnc(N5CCOCC5)c34)c2)CC1 = 0.370
CCSc1nc(NC)c2c(-c3cccc(NC(=O)Nc4cc(C(C)(C)C)nn4-c4ccc(C)cc4)c3)c[nH]c2n1 = 0.097

P = Cc1ccc(-n2nc(C(C)(C)C)cc2NC(=O)Nc2cccc(-c3c[nH]c4ncnc(N5CCOCC5)c34)c2)cc1
Q = O=C(Nc1cccc(-c2c[nH]c3ncnc(N4CCOCC4)c23)c1)C1(C(=O)Nc2ccc(F)cc2F)CC1
R = Cc1ccc(-n2nc(C(C)(C)C)cc2NC(=O)Nc2cccc(-c3c[nH]c4nc(Cl)nc(N5CCOCC5)c34)c2)cc1
S = CCNc1nc(Nc2cc(F)c(C(=O)N3CCOCC3)cc2OC)ncc1C(F)(F)F
QUERY: Order the records so the highest S(5K) appears first and the lowest last. # output: labels, in the requested order
RESULT: P, Q, R, S
(P: 0.356, Q: 0.160, R: 0.099, S: 0.029)

* * *

# measured on: ~100 representative kinases (Homo sapiens, UniProt Q5VT25)
# Construct: Recombinant protein kinase domains with a concentration of 2 μM
# Sequence (Q5VT25 whole entry, the tested form may be a part): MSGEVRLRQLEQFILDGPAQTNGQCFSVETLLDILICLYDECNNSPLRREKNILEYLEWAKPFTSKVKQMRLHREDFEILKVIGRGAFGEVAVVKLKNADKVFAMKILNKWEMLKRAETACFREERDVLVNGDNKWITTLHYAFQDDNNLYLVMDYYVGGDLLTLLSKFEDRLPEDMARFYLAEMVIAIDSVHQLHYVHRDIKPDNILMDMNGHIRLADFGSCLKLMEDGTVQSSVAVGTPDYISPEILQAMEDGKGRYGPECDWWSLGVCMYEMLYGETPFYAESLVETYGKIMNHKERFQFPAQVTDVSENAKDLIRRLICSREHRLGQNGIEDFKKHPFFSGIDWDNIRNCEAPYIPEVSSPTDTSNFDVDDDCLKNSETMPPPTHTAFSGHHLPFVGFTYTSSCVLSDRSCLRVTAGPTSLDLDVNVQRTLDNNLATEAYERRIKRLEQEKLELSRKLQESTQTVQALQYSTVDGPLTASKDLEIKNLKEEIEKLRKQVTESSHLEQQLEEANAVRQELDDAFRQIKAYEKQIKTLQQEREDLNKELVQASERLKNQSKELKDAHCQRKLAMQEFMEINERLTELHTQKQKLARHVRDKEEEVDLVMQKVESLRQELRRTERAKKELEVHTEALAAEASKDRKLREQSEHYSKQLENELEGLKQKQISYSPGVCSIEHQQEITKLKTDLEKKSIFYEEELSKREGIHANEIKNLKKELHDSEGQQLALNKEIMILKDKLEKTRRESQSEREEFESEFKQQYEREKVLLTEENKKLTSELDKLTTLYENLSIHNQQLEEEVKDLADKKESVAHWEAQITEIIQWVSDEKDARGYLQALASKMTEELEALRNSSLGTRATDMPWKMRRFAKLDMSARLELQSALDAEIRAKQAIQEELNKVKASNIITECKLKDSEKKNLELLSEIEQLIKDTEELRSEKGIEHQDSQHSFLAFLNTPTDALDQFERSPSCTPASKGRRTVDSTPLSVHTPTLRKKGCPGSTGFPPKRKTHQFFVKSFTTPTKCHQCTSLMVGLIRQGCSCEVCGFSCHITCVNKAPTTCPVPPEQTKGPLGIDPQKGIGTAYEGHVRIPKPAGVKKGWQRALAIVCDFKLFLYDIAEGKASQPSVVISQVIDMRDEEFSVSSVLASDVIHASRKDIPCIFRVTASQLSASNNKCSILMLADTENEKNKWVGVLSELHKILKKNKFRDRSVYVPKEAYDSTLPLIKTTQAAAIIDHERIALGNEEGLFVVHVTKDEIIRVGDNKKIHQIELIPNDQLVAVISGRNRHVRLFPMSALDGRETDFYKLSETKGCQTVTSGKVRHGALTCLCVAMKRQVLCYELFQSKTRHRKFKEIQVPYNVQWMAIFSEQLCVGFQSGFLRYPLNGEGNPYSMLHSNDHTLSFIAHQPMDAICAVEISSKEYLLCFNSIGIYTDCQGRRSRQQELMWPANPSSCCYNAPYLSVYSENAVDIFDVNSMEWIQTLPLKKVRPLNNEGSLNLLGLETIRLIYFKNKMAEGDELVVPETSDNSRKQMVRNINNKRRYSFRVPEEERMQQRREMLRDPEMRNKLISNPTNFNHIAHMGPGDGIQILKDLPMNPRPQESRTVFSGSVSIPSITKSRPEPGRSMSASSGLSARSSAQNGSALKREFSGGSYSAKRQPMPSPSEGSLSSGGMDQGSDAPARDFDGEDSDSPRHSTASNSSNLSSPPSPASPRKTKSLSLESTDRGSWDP
# protocol details: DSF 100 kinase selectivity screen;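 on dTm: compound tested at 20 µM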
# Format: binding
# test settings: Protein CDC42BPA; average of three replicates
# Procedure: Recombinant protein kinase domains with a concentration of 2 μM were mixed with a 20 μM compound solution in dimethyl sulfoxide (DMSO), 20 mM Hepes (pH 7.5), and 500 mM NaCl. SYPRO Orange (5000×, Invitrogen) was added as a fluorescence probe (1μl/ml). Subsequently, temperature-dependent protein unfolding profiles were measured using the QuantStudio 5 realtime PCR machine (Thermo Fisher Scientific, Waltham, MA, USA). […] The temperature was raised with a step rate of 3°C/min. […]
parameter: dTm (K)

Use these answered entries as a reference point.
COc1cc(S(C)(=O)=O)ccc1Nc1nc(N(C)C)c2c(Cl)c[nH]c2n1 [Compound 37] = -0.18
COc1cc(C(=O)N2CCOCC2)c(F)cc1Nc1nc(N(C)C)c2c(Cl)c[nH]c2n1 [Compound 36] = -0.93

1 = O=C(Nc1ccc(Cl)cc1)C1(C(=O)Nc2cccc(-c3c[nH]c4ncnc(N5CCOCC5)c34)c2)CC1 [Compound 13]
2 = O=C(Nc1cccc(-c2c[nH]c3ncnc(N4CCOCC4)c23)c1)C1(C(=O)Nc2ccc(F)c(Cl)c2)CC1 [Compound 18]
QUERY: Which value of dTm is greater, the one for 1 or the one for 2 ? Please respond with the label that marks your chosen entry.
RESULT: 1
(1: -0.08 K, 2: -0.25 K)

* * *

# measured on: ~100 representative kinases (Homo sapiens, UniProt P54753)
# Construct: Recombinant protein kinase domains with a concentration of 2 μM
# Sequence (P54753 34-998): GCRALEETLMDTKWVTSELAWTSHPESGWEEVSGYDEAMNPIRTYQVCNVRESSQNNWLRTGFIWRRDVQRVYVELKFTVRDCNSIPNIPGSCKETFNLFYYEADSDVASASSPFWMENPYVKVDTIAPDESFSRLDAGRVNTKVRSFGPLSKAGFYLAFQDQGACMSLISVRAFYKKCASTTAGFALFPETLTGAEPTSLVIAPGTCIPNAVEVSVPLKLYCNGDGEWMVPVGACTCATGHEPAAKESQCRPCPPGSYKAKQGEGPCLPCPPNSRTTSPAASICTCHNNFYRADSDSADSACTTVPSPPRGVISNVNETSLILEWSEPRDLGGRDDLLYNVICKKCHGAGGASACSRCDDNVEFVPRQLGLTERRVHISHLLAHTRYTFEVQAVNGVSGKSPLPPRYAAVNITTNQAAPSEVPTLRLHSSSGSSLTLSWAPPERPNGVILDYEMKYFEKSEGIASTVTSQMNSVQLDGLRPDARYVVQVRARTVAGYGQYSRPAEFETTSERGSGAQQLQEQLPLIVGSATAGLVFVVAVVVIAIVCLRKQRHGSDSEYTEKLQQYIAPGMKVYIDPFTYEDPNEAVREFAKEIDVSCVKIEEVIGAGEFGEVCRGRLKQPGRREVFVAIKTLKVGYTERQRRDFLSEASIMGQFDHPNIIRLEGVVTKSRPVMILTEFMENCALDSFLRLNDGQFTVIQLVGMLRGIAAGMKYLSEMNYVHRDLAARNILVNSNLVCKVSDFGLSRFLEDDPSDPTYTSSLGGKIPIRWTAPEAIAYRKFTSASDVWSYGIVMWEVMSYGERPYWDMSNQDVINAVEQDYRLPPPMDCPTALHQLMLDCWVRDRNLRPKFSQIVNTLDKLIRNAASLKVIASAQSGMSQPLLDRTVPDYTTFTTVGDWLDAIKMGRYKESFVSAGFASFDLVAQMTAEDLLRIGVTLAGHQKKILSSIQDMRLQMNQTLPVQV
# protocol details: DSF 100 kinase selectivity screen;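 on dTm: compound tested at 20 µM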
# Format: binding
# test settings: Protein EPHB3A; average of three replicates
parameter: dTm (K)

Use these answered entries as a reference point.
Cc1ccc(C(=O)Nc2ccc(CN3CCN(C)CC3)c(C(F)(F)F)c2)cc1C#Cc1c[nH]c2ncnc(N3CCOCC3)c12 = 4.94
Cc1ccc(C(=O)Nc2ccc(CN3CCN(C)CC3)c(C(F)(F)F)c2)cc1C#Cc1cnc2cccnn12 [Ponatinib, reference compound] = 13.49

A = O=C(Nc1ccccc1)C1(C(=O)Nc2cccc(-c3c[nH]c4ncnc(N5CCOCC5)c34)c2)CC1
B = COc1cc(C(=O)N2CCOCC2)c(F)cc1Nc1nc(N(C)C)c2c(Cl)c[nH]c2n1
QUERY: Please indicate which entry, A or B , has the lower recorded dTm value. Please respond with the label that marks your chosen entry.
RESULT: B
(B: -1.35 K, A: 3.99 K)

* * *

# measured on: ~100 representative kinases (Homo sapiens, UniProt P00519)
# Construct: Recombinant protein kinase domains with a concentration of 2 μM
# Sequence (P00519 whole entry, the tested form may be a part): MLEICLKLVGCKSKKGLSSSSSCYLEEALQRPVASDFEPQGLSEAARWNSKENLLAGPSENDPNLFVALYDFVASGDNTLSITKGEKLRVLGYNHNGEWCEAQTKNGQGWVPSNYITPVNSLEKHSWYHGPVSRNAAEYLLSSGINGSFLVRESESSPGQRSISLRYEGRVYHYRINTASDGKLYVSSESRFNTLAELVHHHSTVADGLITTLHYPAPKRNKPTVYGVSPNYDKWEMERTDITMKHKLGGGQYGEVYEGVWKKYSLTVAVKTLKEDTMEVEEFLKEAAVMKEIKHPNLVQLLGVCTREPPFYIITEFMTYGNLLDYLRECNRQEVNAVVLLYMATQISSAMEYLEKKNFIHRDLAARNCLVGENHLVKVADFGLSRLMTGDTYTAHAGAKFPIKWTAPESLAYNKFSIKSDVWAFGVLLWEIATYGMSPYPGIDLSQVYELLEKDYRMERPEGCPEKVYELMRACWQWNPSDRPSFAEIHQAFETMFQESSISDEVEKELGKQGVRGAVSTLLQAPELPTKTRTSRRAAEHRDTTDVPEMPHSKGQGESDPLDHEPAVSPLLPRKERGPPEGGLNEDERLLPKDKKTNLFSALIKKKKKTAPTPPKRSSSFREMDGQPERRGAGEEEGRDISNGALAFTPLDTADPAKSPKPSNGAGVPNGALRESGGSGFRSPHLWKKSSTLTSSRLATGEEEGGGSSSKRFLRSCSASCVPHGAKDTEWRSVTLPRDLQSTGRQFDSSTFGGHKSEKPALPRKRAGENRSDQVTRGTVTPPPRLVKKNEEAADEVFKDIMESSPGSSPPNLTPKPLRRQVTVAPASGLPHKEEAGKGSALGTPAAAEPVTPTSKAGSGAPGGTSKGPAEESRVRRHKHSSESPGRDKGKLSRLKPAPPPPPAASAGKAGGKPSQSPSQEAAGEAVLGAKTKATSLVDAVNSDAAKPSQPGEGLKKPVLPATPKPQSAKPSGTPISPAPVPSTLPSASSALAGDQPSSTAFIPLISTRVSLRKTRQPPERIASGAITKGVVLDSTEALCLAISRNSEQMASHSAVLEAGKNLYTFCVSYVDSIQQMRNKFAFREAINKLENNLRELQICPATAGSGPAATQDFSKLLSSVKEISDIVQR
# protocol details: DSF 100 kinase selectivity screen;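 on dTm: compound tested at 20 µM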
# Format: binding
# test settings: Protein ABL1; average of three replicates
parameter: dTm (K)

O=C(Nc1cccc(-c2c[nH]c3ncnc(N4CCOCC4)c23)c1)C1(C(=O)Nc2ccc(F)c(Br)c2)CC1 [Compound 19] = 1.83
O=C(Nc1ccccc1)C1(C(=O)Nc2cccc(-c3c[nH]c4ncnc(N5CCOCC5)c34)c2)CC1 [Compound 12] = 1.58
O=C(Nc1cccc(-c2c[nH]c3ncnc(N4CCOCC4)c23)c1)C1(C(=O)Nc2cccc3c2CCC3)CC1 [Compound 11] = 1.38

* * *

# measured on: ~100 representative kinases (Homo sapiens, UniProt P27448)
# Construct: Recombinant protein kinase domains with a concentration of 2 μM
# Sequence (P27448 whole entry, the tested form may be a part): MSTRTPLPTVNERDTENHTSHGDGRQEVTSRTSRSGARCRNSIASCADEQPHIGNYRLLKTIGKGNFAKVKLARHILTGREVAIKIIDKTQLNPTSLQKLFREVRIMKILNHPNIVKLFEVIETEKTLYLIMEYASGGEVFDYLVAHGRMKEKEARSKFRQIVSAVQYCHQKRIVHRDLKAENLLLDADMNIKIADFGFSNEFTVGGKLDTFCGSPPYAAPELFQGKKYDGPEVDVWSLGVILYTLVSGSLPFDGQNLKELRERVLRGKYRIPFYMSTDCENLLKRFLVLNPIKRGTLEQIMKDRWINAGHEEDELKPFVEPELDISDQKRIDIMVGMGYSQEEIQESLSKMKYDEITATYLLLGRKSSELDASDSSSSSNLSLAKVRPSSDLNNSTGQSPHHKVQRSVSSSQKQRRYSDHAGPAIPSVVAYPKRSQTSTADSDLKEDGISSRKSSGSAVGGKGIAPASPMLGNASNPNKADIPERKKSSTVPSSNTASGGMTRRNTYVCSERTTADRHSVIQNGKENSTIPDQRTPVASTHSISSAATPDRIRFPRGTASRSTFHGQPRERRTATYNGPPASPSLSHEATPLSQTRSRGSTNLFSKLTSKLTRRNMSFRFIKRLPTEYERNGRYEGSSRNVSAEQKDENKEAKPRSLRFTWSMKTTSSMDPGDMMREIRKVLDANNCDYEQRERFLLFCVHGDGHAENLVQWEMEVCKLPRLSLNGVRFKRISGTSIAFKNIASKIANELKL
# protocol details: DSF 100 kinase selectivity screen;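 on dTm: compound tested at 20 µM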
# Type: binding
# test settings: protein MARK3; average of three replicates
parameter: dTm (K)

Use these answered entries as a reference point.
CC(C)(C)c1cccc(NC(=O)C2(C(=O)Nc3cccc(-c4c[nH]c5ncnc(N6CCOCC6)c45)c3)CC2)c1 [Compound 22] = 4.89
O=C(Nc1cccc(-c2c[nH]c3ncnc(N4CCOCC4)c23)c1)C1(C(=O)Nc2ccc(F)c(F)c2)CC1 [Compound 17] = 5.81

1 = O=C(Nc1ccc(Cl)cc1)C1(C(=O)Nc2cccc(-c3c[nH]c4ncnc(N5CCOCC5)c34)c2)CC1 [Compound 13]
2 = COc1ccc(NC(=O)C2(C(=O)Nc3cccc(-c4c[nH]c5ncnc(N6CCOCC6)c45)c3)CC2)cc1 [Compound 16]
QUERY: Please indicate which entry, 1 or 2 , has the lower recorded dTm value. Please respond with the label that marks your chosen entry.
RESULT: 2
(2: 2.45 K, 1: 7.72 K)

* * *

# measured on: ~100 representative kinases (Homo sapiens, UniProt O96017)
# Construct: Recombinant protein kinase domains with a concentration of 2 μM
# Sequence (O96017 whole entry, the tested form may be a part): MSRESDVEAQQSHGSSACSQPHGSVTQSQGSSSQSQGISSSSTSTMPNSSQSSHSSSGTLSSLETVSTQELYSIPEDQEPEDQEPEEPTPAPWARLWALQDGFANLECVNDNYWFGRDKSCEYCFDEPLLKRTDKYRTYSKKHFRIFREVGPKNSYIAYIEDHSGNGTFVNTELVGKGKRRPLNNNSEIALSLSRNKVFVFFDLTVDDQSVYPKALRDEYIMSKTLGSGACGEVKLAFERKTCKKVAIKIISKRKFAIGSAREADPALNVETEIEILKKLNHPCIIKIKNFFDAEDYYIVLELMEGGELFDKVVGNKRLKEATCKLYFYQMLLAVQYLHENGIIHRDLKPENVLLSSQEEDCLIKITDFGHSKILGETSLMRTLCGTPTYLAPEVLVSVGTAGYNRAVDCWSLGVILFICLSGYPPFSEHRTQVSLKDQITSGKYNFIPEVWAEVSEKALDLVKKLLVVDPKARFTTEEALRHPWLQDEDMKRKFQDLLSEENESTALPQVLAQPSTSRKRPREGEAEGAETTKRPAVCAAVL
# protocol details: DSF 100 kinase selectivity screen;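 on dTm: compound tested at 20 µM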
# Type: binding
# test settings: Protein CHEK2; average of three replicates
parameter: dTm (K)

Use these answered entries as a reference point.
O=C(Nc1ccc(Cl)cc1)C1(C(=O)Nc2cccc(-c3c[nH]c4ncnc(N5CCOCC5)c34)c2)CC1 = 5.52
Cc1ccc(-n2nc(C(C)(C)C)cc2NC(=O)Nc2cccc(-c3c[nH]c4ncnc(N5CCOCC5)c34)c2)cc1 = 12.51
CC(C)(C)c1cc(NC(=O)Nc2cccc(-c3c[nH]c4ncnc(N5CCOCC5)c34)c2)n(-c2ccc3ncccc3c2)n1 = 10.72

I = CC(C)(C)c1cccc(NC(=O)C2(C(=O)Nc3cccc(-c4c[nH]c5ncnc(N6CCOCC6)c45)c3)CC2)c1
II = COc1cc(S(C)(=O)=O)ccc1Nc1nc(N(C)C)c2c(Cl)c[nH]c2n1
QUERY: Which value of dTm is greater, the one for I or the one for II ? Please respond with the label that marks your chosen entry.
RESULT: II

1 = Cc1ccc(-n2nc(C(C)(C)C)cc2NC(=O)Nc2cccc(-c3c[nH]c4nc(Cl)nc(N5CCOCC5)c34)c2)cc1
2 = O=C(Nc1ccccc1)C1(C(=O)Nc2cccc(-c3c[nH]c4ncnc(N5CCOCC5)c34)c2)CC1
3 = O=C(Nc1cc(F)cc(Br)c1)C1(C(=O)Nc2cccc(-c3c[nH]c4ncnc(N5CCOCC5)c34)c2)CC1
QUERY: Order the records so the highest dTm appears first and the lowest last. # output: labels, in the requested order
RESULT: 1, 2, 3
(1: 4.41 K, 2: 3.05 K, 3: 1.74 K)

P = O=C(Nc1cccc(-c2c[nH]c3ncnc(N4CCOCC4)c23)c1)C1(C(=O)Nc2ccc(F)c(Br)c2)CC1
Q = CCc1ccc(NC(=O)C2(C(=O)Nc3cccc(-c4c[nH]c5ncnc(N6CCOCC6)c45)c3)CC2)cc1
QUERY: Please indicate which entry, P or Q , has the lower recorded dTm value. Please respond with the label that marks your chosen entry.
RESULT: P

* * *

# measured on: LRRK2^KW (Homo sapiens, UniProt Q5S007)
# Construct: LRRK2 R1847 to E2527; His6-Z-tag (TEV cleavable) (N, cleaved yes); host or cells: Sf9 insect cells (baculovirus)
# Sequence (Q5S007 1847-2527): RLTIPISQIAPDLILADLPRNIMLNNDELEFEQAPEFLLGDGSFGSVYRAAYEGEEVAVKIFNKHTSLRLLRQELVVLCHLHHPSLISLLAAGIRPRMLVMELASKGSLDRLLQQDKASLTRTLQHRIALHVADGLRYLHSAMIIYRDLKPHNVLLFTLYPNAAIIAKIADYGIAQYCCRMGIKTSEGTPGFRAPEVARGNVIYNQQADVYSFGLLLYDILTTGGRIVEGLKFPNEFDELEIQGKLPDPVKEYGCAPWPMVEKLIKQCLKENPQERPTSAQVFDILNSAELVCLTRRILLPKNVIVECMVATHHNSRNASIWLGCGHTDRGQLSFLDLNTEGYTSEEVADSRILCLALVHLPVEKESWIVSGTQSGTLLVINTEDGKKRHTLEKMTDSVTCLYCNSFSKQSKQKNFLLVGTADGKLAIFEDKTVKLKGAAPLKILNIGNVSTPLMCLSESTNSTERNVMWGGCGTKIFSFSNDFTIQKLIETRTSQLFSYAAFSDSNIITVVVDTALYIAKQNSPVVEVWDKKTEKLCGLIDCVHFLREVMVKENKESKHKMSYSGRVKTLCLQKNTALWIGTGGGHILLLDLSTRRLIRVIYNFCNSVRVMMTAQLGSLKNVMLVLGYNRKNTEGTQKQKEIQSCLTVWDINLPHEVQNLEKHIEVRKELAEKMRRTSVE
# protocol details: DSF thermal stabilization of LRRK2^KW
# Type: binding
# test settings: screen of 31 type-II inhibitors, Table S1
parameter: dTm LRRK2(KW) [K] (K)

Cc1ccc(-n2nc(C(C)(C)C)cc2NC(=O)Nc2cc(COc3cccnc3)[nH]n2)cc1 [PF-4618433, reference compound] = 11

a = Cc1ccc(-n2nc(C(C)(C)C)cc2NC(=O)Nc2ccc(OCCN3CCOCC3)c3ccccc23)cc1 [BIRB-796, reference compound]
b = CCOc1ccn(-c2ccc(F)cc2)c(=O)c1C(=O)Nc1ccc(Oc2ccnc(N)c2Cl)c(F)c1 [BMS 777607, reference compound]
c = COc1cc(Oc2ccnc3cc(OC)c(OC)cc23)ccc1NC(=O)NC(C)c1nccs1 (stereo not drawn) [KI20227, reference compound]
d = CC1(C)CNc2cc(NC(=O)c3cccnc3NCc3ccncc3)ccc21 [Motesanib, reference compound]
e = Cc1ccc(NC(=O)c2cccc(N(C)C)c2)cc1NC(=O)c1ccc(O)cc1 [ZM336372, reference compound]
QUERY: Ascending by dTm LRRK2(KW) [K], please: list the molecules accordingly. # output: labels, in the requested order
RESULT: e, d, a, c, b
(e: -1 K, d: -0.5 K, a: 0 K, c: 3 K, b: 6.8 K)
